- Tested on: H1N1 A1/Malaysia/302/1954
- measurementParameters: A1/Malaysia/302/1954, 48 h, 10 μM
Bridge positions count the residues as written; N and C are the ends. Square brackets hold non-standard residues; d marks the D form. Peptide text beside a SMILES is read from it.
valueKind: % inhibition H1N1 (%)

[[record]]
compound = "CC[C@@H](C)[C@H]1NC(=O)[C@@H](Cc2ccccc2)NC(=O)[C@H]2CCCN2C(=O)[C@@H](Cc2ccccc2)NC(=O)[C@@H](Cc2c[nH]c3ccccc23)NC(=O)[C@@H]([C@H](C)O)NC(=O)[C@H](NC(=O)[C@H](CCCCN)NC(=O)[C@H](CCCCN)NC(=O)[C@H](CCCNC(=N)N)NC(=O)[C@@H](N)CCCNC(=N)N)CSSC[C@H](C(=O)O)NC(=O)[C@@H](CC(N)=O)NC1=O [PSP IV A13, H-RRKKctwfpfinc-OH] (H-RRKK[dC][dT][dW][dF][dP][dF][dI][dN][dC]-OH; disulfide 5-13)"
valuekind = "% inhibition H1N1"
unitslabel = "%"
valueobserved = 52


====

- System: H1N1 A/PR/8/1934
- measurementParameters: A/PR/8/1934, 48 h, 1 μM
Bridge positions count the residues as written; N and C are the ends. Square brackets hold non-standard residues; d marks the D form. Peptide text beside a SMILES is read from it.
valueKind: % Inhibition

[[record]]
compound = "CC[C@@H](C)[C@H]1NC(=O)[C@@H](Cc2ccccc2)NC(=O)[C@@H]([C@H](C)O)NC(=O)[C@@H](Cc2ccccc2)NC(=O)[C@@H](Cc2c[nH]c3ccccc23)NC(=O)[C@@H](Cc2c[nH]c3ccccc23)NC(=O)[C@H](NC(=O)[C@H](CCCCN)NC(=O)[C@H](CCCCN)NC(=O)[C@H](CCCNC(=N)N)NC(=O)[C@@H](N)CCCNC(=N)N)CSSC[C@H](C(=O)O)NC(=O)[C@@H](CCC(=O)O)NC1=O [PSP VI A4, H-RRKKcwwftfiec-OH] (H-RRKK[dC][dW][dW][dF][dT][dF][dI][dE][dC]-OH; disulfide 5-13)"
measurementtarget = "H1N1 A/PR/8/1934"
valuekind = "% Inhibition"
valueobserved = "65%"

[[record]]
compound = "CC[C@@H](C)[C@H]1NC(=O)[C@@H](Cc2ccccc2)NC(=O)[C@@H]([C@H](C)O)NC(=O)[C@@H](Cc2ccccc2)NC(=O)[C@@H](Cc2c[nH]c3ccccc23)NC(=O)[C@@H](Cc2c[nH]c3ccccc23)NC(=O)[C@H](NC(=O)[C@H](CCCCN)NC(=O)[C@H](CCCCN)NC(=O)[C@H](CCCNC(=N)N)NC(=O)[C@@H](N)CCCNC(=N)N)CSSC[C@H](C(=O)O)NC(=O)[C@@H](C)NC1=O [PSP VI A1, H-RRKKcwwftfiac-OH] (H-RRKK[dC][dW][dW][dF][dT][dF][dI][dA][dC]-OH; disulfide 5-13)"
measurementtarget = "H1N1 A/PR/8/1934"
valuekind = "% Inhibition"
valueobserved = "98.5%"

[[record]]
compound = "CC[C@@H](C)[C@H]1NC(=O)[C@@H](Cc2ccccc2)NC(=O)[C@@H]([C@H](C)O)NC(=O)[C@@H](Cc2ccccc2)NC(=O)[C@@H](Cc2c[nH]c3ccccc23)NC(=O)[C@@H](Cc2c[nH]c3ccccc23)NC(=O)[C@H](NC(=O)[C@H](CCCCN)NC(=O)[C@H](CCCCN)NC(=O)[C@H](CCCNC(=N)N)NC(=O)[C@@H](N)CCCNC(=N)N)CSSC[C@H](C(=O)O)NC(=O)[C@@H](Cc2ccccc2)NC1=O [PSP VI A5, H-RRKKcwwftfifc-OH] (H-RRKK[dC][dW][dW][dF][dT][dF][dI][dF][dC]-OH; disulfide 5-13)"
measurementtarget = "H1N1 A/PR/8/1934"
valuekind = "% Inhibition"
valueobserved = "60%"

[[record]]
compound = "CC[C@@H](C)[C@H]1NC(=O)[C@@H](Cc2ccccc2)NC(=O)[C@@H]([C@H](C)O)NC(=O)[C@@H](Cc2ccccc2)NC(=O)[C@@H](Cc2c[nH]c3ccccc23)NC(=O)[C@@H](Cc2c[nH]c3ccccc23)NC(=O)[C@H](NC(=O)[C@H](CCCCN)NC(=O)[C@H](CCCCN)NC(=O)[C@H](CCCNC(=N)N)NC(=O)[C@@H](N)CCCNC(=N)N)CSSC[C@H](C(=O)O)NC(=O)[C@@H](Cc2c[nH]c3ccccc23)NC1=O [PSP VI A19, H-RRKKcwwftfiwc-OH] (H-RRKK[dC][dW][dW][dF][dT][dF][dI][dW][dC]-OH; disulfide 5-13)"
measurementtarget = "H1N1 A/PR/8/1934"
valuekind = "% Inhibition"
valueobserved = "78%"


====

- System: H3N8 A/Miami/2/63
- measurementParameters: A/Miami/2/63, 48 h, 500 μM
Bridge positions count the residues as written; N and C are the ends. Square brackets hold non-standard residues; d marks the D form. Peptide text beside a SMILES is read from it.
valueKind: % inhibition H3N8 (%)

[[record]]
molecule = "C[C@H](O)[C@H]1NC(=O)[C@H](N)CSSC[C@H](C(=O)O)NC(=O)[C@@H](CC(N)=O)NC(=O)[C@@H](CO)NC(=O)[C@@H](Cc2ccccc2)NC(=O)[C@@H](CCCNC(=N)N)NC(=O)[C@@H](CO)NC(=O)[C@@H](CCCCN)NC1=O [PSP 16, H-ctksrfsnc-OH] (H-[dC][dT][dK][dS][dR][dF][dS][dN][dC]-OH; disulfide 1-9)"
valuekind = "% inhibition H3N8"
valueobserved = 71.1

[[record]]
molecule = "C[C@H](O)[C@H]1NC(=O)[C@H](N)CSSC[C@H](C(=O)O)NC(=O)[C@@H](CC(N)=O)NC(=O)[C@@H](CC(N)=O)NC(=O)[C@@H](Cc2ccccc2)NC(=O)[C@@H](CCCNC(=N)N)NC(=O)[C@@H](CO)NC(=O)[C@@H](CCCCN)NC1=O [PSP 12, H-ctksrfnnc-OH] (H-[dC][dT][dK][dS][dR][dF][dN][dN][dC]-OH; disulfide 1-9)"
valuekind = "% inhibition H3N8"
valueobserved = 70.1

[[record]]
molecule = "C[C@H](O)[C@H]1NC(=O)[C@H](N)CSSC[C@H](C(=O)O)NC(=O)[C@@H](CC(N)=O)NC(=O)[C@H]2CCCN2C(=O)[C@@H](Cc2ccccc2)NC(=O)[C@@H](CCCNC(=N)N)NC(=O)[C@@H](CO)NC(=O)[C@@H](CCCCN)NC1=O [PSP 13, H-ctksrfpnc-OH] (H-[dC][dT][dK][dS][dR][dF][dP][dN][dC]-OH; disulfide 1-9)"
valuekind = "% inhibition H3N8"
valueobserved = 70.1

